System: SNU-C4 xenografted nude mice
Assay: Biodistribution study in SNU-C4 xenografted nude mice after intravenous injection
Format: in vivo, mouse
Conditions: spleen, 2 hr after intravenous injection
reported-metric: % ID/g Spleen (% ID/g)
# value in % ID/g; strip the unit string

Example molecules with recorded % ID/g Spleen:
INSERT INTO measurements (molecule, measurement_units, obs_value) VALUES
  ('O=C([O-])CN1CCNCCN(CC(=O)[O-])CCN(CC(=O)[O-])CC1.[68Ga+3] [^68Ga-DO3A, reference compound]', '% ID/g', 0.53),
  ('O=C([O-])CN1CCN(CC(=O)[O-])CCN(CC(=O)[O-])CC1.[68Ga+3] [^68Ga-NOTA, reference compound]', '% ID/g', 0.19),
  ('NC(CN1CCN(CC(=O)[O-])CCNCCN(CC(=O)[O-])CC1)C(=O)[O-].[68Ga+3] (centres unmarked) [^68Ga-DO2A-ala]', '% ID/g', 0.82),
  ('NC(CNC(=O)CN1CCN(CC(=O)[O-])CCN(CC(=O)[O-])CCN(CC(=O)[O-])CC1)C(=O)O.[68Ga+3] (centres unmarked) [^68Ga-DOTA-ala]', '% ID/g', 0.33);

[ask] Entry O=C([O-])CN1CCNCCN(CC(=O)[O-])CCNCC1.[68Ga+3] [^68Ga-DO2A, reference compound] has what % ID/g Spleen?
[reply] 0.38

[ask] Entry O=C([O-])CN1CCN(CC(=O)[O-])CCN(CC(=O)O)CCN(CC(=O)[O-])CC1.[68Ga+3] [^68Ga-DOTA, reference compound] has what % ID/g Spleen?
[reply] 0.18

[ask] Entry NC(CNC(=O)CN1CCN(CC(=O)[O-])CCN(CC(=O)[O-])CC1)C(=O)[O-].[68Ga+3] (centres unmarked) [^68Ga-NOTA-ala] has what % ID/g Spleen?
[reply] 0.48

[ask] Entry N[C@@H](CN1CCN(CC(=O)[O-])CCN(CC(=O)[O-])CCN(CC(=O)[O-])CC1)C(=O)O.[68Ga+3] (stereo in doubt) [^68Ga-DO3A-ala] has what % ID/g Spleen?
[reply] 2.19
